- Tested on: Vero
- methodSummary: Cytotoxicity against African green monkey Vero cells assessed as cell growth inhibition after 48 hrs by MTT assay
- Assay type: cell-based
- assaySetup: Chlorocebus sabaeus
measuredMetric: pIC50
// scale note: pIC50 = -log10(conc_M); give the bare number

compoundSmiles	pIC50
CC(=O)O[C@H]1C(=O)[C@@]2(C)[C@H]([C@H](OC(=O)c3ccccc3)[C@]3(O)C[C@H](OC(=O)[C@H](O)[C@@H](NC(=O)c4ccccc4)c4ccccc4)C(C)=C1C3(C)C)[C@]1(OC(C)=O)CO[C@@H]1C[C@@H]2O	6.19
CC(C)c1cc2c(cc1O)[C@@]1(C)CCC[C@@](C)(CN)[C@@H]1CC2	4.40
CC(C)c1cc2c(cc1O)[C@@]1(C)CCC[C@@](C)(C=O)[C@@H]1CC2	4.04

In: Form field: reported pIC50 of `Cc1ccc(S(=O)(=O)NC[C@]2(C)CCC[C@]3(C)c4cc(O)c(C(C)C)cc4CC[C@@H]23)cc1`
Out: 4.08

In: Entry to check: `CC(C)c1cc2c(cc1O)[C@@]1(C)CCC[C@@](C)(CN3C(=O)c4c(Cl)c(Cl)c(Cl)c(Cl)c4C3=O)[C@@H]1CC2`
Out: 3.57

In: Now give it for `COc1cccc2c1C(=O)c1c(O)c3c(c(O)c1C2=O)C[C@@](O)(C(=O)CO)C[C@@H]3O[C@H]1C[C@H](N)[C@H](O)[C@H](C)O1` too.
Out: 5.71

In: `CC(C)c1cc2c(cc1O)[C@@]1(C)CCCC(C)(C)[C@@H]1CC2` ?
Out: 4.04

----------
- methodSummary: Cytotoxicity against human U937 cells assessed as cell growth inhibition after 48 hrs by MTT assay
- Type: functional, cell-based
- assaySetup: U-937, 48 h
measuredMetric: IC50 (µM)
Form entry: value (µM) — number only.

In [3]: df
Out[3]:
                             compoundsmiles  numericvalue
0  CC(=O)Oc1cc2c(cc1C(C)C)C(=O)C[C@H]1[C@](C)(CN3C(=O)c4c(Cl)c(Cl)c(Cl)c(Cl)c4C3=O)CCC[C@]21C           8.3

In: Consider the compound `CC(C)c1cc2c(cc1O)[C@@]1(C)CCCC(C)(C)[C@@H]1CC2` and give its measured IC50.
Out: 21.3

----------
- methodSummary: Cytotoxicity against human U937 cells assessed as cell growth inhibition after 48 hrs by MTT assay
- Type: functional, cell-based
- assaySetup: U-937, 48 h
Catalogue of IC50 values
Quick reminder: number only, in µM, skip the unit.

>>> df
                             compoundsmiles  measuredmetric  numericvalue
0  CC(C)c1cc2c(cc1O)[C@@]1(C)CCC[C@@](C)(C=O)[C@@H]1CC2            IC50          33.2
1  COc1cccc2c1C(=O)c1c(O)c3c(c(O)c1C2=O)C[C@@](O)(C(=O)CO)C[C@@H]3O[C@H]1C[C@H](N)[C@H](O)[C@H](C)O1            IC50         0.077

Lab note: next compound to report on.
In: Requested read-out: IC50. Entry: `Cc1ccc(S(=O)(=O)NC[C@]2(C)CCC[C@]3(C)c4cc(O)c(C(C)C)cc4CC[C@@H]23)cc1`
Out: 36

----------
Ratio IC50 values by entry
- Test system: Vero
- methodSummary: Selectivity index, ratio of IC50 for African green monkey Vero cells to IC50 for human U937 cells
- Type: functional

Reference set (3 entries):
                                   compound  result
0  CC(=O)Oc1cc2c(cc1C(C)C)C(=O)C[C@H]1[C@](C)(CN3C(=O)c4c(Cl)c(Cl)c(Cl)c(Cl)c4C3=O)CCC[C@]21C   >38.5
1  Cc1ccc(S(=O)(=O)NC[C@]2(C)CCC[C@]3(C)c4cc(O)c(C(C)C)cc4CC[C@@H]23)cc1     2.3
2  CC(C)c1cc2c(cc1O)[C@@]1(C)CCCC(C)(C)[C@@H]1CC2 [FERRUGINOL]     4.2

--- query ---
In: Consider the compound CC(C)c1cc2c(cc1O)[C@@]1(C)CCC[C@@](C)(C=O)[C@@H]1CC2 [18-OXOFERRUGINOL] and give its measured Ratio IC50.
Out: 2.7

----------
- System: Jurkat
- methodSummary: Selectivity index, ratio of IC50 for African green monkey Vero cells to IC50 for human Jurkat cells
- Assay type: functional
measuredMetric: Ratio IC50
Please state the value as a number alone, without comment.

// worked examples, Ratio IC50 included
In [3]: df
Out[3]:
                             compoundsmiles  measuredmetric  numericvalue
0  Cc1ccc(S(=O)(=O)NC[C@]2(C)CCC[C@]3(C)c4cc(O)c(C(C)C)cc4CC[C@@H]23)cc1      Ratio IC50           2.7
1  CC(C)c1cc2c(cc1O)[C@@]1(C)CCCC(C)(C)[C@@H]1CC2      Ratio IC50           1.9
2  CC(C)c1cc2c(cc1O)[C@@]1(C)CCC[C@@](C)(CN3C(=O)c4c(Cl)c(Cl)c(Cl)c(Cl)c4C3=O)[C@@H]1CC2      Ratio IC50          12.2
3  CC(C)c1cc2c(cc1O)[C@@]1(C)CCC[C@@](C)(CN)[C@@H]1CC2      Ratio IC50           0.8

In: Ratio IC50 lookup needed for `CC(C)c1cc2c(cc1O)[C@@]1(C)CCC[C@@](C)(C=O)[C@@H]1CC2` , thanks.
Out: 4.2

----------
- Test system: Jurkat
- methodSummary: Cytotoxicity against human Jurkat cells assessed as cell growth inhibition after 48 hrs by MTT assay
- Format: functional, cell-based
Could you please mark YES for values of IC50 below 20 µM and NO for values at or above it?

As a guide, the following entries are already answered.
compoundSmiles	targetEntity	labelValue
CC(=O)Oc1cc2c(cc1C(C)C)/C(=N\S(=O)(=O)c1ccc(C)cc1)C[C@H]1[C@](C)(CN3C(=O)c4c(Cl)c(Cl)c(Cl)c(Cl)c4C3=O)CCC[C@]21C	Jurkat	NO
CC(C)c1cc2c(cc1O)[C@@]1(C)CCC[C@@](C)(CN3C(=O)c4ccccc4C3=O)[C@@H]1CC2	Jurkat	NO

In: Take the compound `CC(C)c1cc2c(cc1O)[C@@]1(C)CCC[C@@](C)(C=O)[C@@H]1CC2` and say whether its IC50 is less than 20 µM.
Out: NO

In: Input `Cc1ccc(S(=O)(=O)NC[C@]2(C)CCC[C@]3(C)c4cc(O)c(C(C)C)cc4CC[C@@H]23)cc1`
Out: NO

In: Try this compound too: `CC(C)c1cc2c(cc1O)[C@@]1(C)CCC[C@@](C)(CN3C(=O)c4c(Cl)c(Cl)c(Cl)c(Cl)c4C3=O)[C@@H]1CC2`
Out: NO

----------
Item-by-item account of EC50
- Test system: Human alphaherpesvirus 1
- methodSummary: Antiviral activity against HHV-1 CDC Atlanta infected in African green monkey Vero cells assessed as reduction in plaque formation administered post viral infection after 72 hrs by crystal violet staining technique
- Format: functional, organism-based
- assaySetup: Human alphaherpesvirus 1, CDC Atlanta, Vero, 72 h; read-out: EC50
Give the number; µM is assumed, so skip it.

>>> print(df.to_string())
                                   compound  numericvalue
0  Nc1nc2c(ncn2COCCO)c(=O)[nH]1 [ACYCLOVIR]           2.2

Consider the additional compound presented here.
In: Form field - read-out: EC50; system: Human alphaherpesvirus 1; submitted item: CC(C)c1cc2c(cc1O)[C@@]1(C)CCC[C@@](C)(C=O)[C@@H]1CC2 [18-OXOFERRUGINOL]
Out: 19.6

----------
# key: entry, value: IC50
- System: Vero
- methodSummary: Cytotoxicity against African green monkey Vero cells assessed as inhibition of cell proliferation after 72 hrs
- Type: cell-based
- assaySetup: Chlorocebus sabaeus
Numbers only here, please. The scale is µM.

>>> print(df.to_string())
                             compoundsmiles  measuredmetric  numericvalue
0  CC(C)c1cc2c(cc1O)[C@@]1(C)CCC[C@@](C)(CN3C(=O)c4ccccc4C3=O)[C@@H]1CC2            IC50           191

Please examine the following record next.
In: Which value of IC50 has been reported for `CC(C)c1cc2c(cc1O)[C@@]1(C)CCC[C@@](C)(C=O)[C@@H]1CC2` in the records?
Out: 97.8

----------
- methodSummary: Cytotoxicity against human U937 cells assessed as cell growth inhibition after 48 hrs by MTT assay
- Type: functional, cell-based
- assaySetup: U-937, 48 h
pIC50: −log10 of the molar value.
Each entry below lists one item and its recorded pIC50 value.

Sample records with pIC50:
>>> df
                             compoundsmiles  result
0  CC(=O)Oc1cc2c(cc1C(C)C)CC[C@H]1[C@](C)(CN3C(=O)c4ccccc4C3=O)CCC[C@]21C  < 4.30
1  CC(=O)Oc1cc2c(cc1C(C)C)CC[C@H]1[C@](C)(CN3C(=O)c4c(Cl)c(Cl)c(Cl)c(Cl)c4C3=O)CCC[C@]21C  < 4.40
2  CC(=O)Oc1cc2c(cc1C(C)C)/C(=N\S(=O)(=O)c1ccc(C)cc1)C[C@H]1[C@](C)(CN3C(=O)c4c(Cl)c(Cl)c(Cl)c(Cl)c4C3=O)CCC[C@]21C  < 4.52

# ---- query molecule ----
In: Fill blank: measured pIC50 of the molecule `CC(C)c1cc2c(cc1O)[C@@]1(C)CCC[C@@](C)(CN3C(=O)c4ccccc4C3=O)[C@@H]1CC2` is ____.
Out: < 4.30
